test system: spasmodic seizures caused by pentetrazole; assay: antipentetrazole test; format: in vivo; details: Rattus norvegicus, po, 0.5 h; female rats 60-80 g, p.o. 30 minutes before 120 mg/kg pentetrazole i.p.
reported_endpoint: ED50 (mg/kg)
Answers are plain numbers, in mg/kg.

Below, each entry is followed by its recorded ED50 result.
smiles_code | ED50 [mg/kg]
O=C(OCC1CC1)c1ncn2c1[C@@H]1CCN1C(=O)c1c(Cl)cccc1-2 | 0.27
O=C(OCC1CC1)c1ncn2c1[C@@H]1CCCN1C(=O)c1c(Br)cccc1-2 | 0.63
O=C(OC1CCCCC1)c1ncn2c1[C@@H]1CCCN1C(=O)c1c(I)cccc1-2 | 2.2
O=C(OCC1CC1)c1ncn2c1[C@@H]1CCCN1C(=O)c1c(Cl)cccc1-2 | 0.66

input: Look up ED50: O=C(OC1CCCCC1)c1ncn2c1[C@@H]1CCCN1C(=O)c1c(Br)cccc1-2
output: 7

====

Task for the reader: assign each of the following compounds its reported pIC50.
molecular target: central benzodiazepine receptors; experiment: inhibition of the binding of tritiated diazepam at the specific benzodiazepine receptors in the cerebral cortex; conditions: [3H]diazepam
Answers are plain numbers, as −log10 of the molar value.

Below, each entry is followed by its recorded pIC50 result.
smiles_code | tgt | reading
O=C(OCC1CC1)c1ncn2c1[C@@H]1CCCN1C(=O)c1c(Cl)cccc1-2 | central benzodiazepine receptors | 5.64
O=C(OCc1ccccc1)c1ncn2c1[C@@H]1CCCN1C(=O)c1c(Cl)cccc1-2 | central benzodiazepine receptors | 5.82
C#CCOC(=O)c1ncn2c1[C@@H]1CCCN1C(=O)c1c(Cl)cccc1-2 | central benzodiazepine receptors | 5.68
O=C(OCC1CC1)c1ncn2c1[C@@H]1CCCN1C(=O)c1c(Br)cccc1-2 | central benzodiazepine receptors | 5.59
O=C(OCC1CC1)c1ncn2c1[C@@H]1CCN1C(=O)c1c(Cl)cccc1-2 | central benzodiazepine receptors | 5.96

Parameter requested: pIC50. Apply to each item below.
1. O=C(OC1CCCCC1)c1ncn2c1[C@@H]1CCCN1C(=O)c1c(I)cccc1-2
2. O=C(OC1CCCCC1)c1ncn2c1[C@@H]1CCCN1C(=O)c1c(Br)cccc1-2

output:
5.68
5.57

Origin of the recorded values: patent US4489003A
